List of inhibition values.
- TESTED_ON: L-lactate dehydrogenase (Plasmodium falciparum (isolate CDC / Honduras))
- RUN_DESCRIPTION: PfLDH activity inhibition – cell lysate, 3D7 strain, counter-screen for P. falciparum growth inhibition project (AID 2304);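 also: 0% = vehicle and 100% = reference inhibitor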
- REPORTED_CONDITIONS: P. falciparum 3D7 crude extract, LDH APAD/NBT absorbance; at 2 µM; active compounds read high
Lab book: enter the figure in %, no units written.

The value of inhibition measured for the molecule CC(=O)N(C)/N=C/[C@H](CCc1ccccc1)NC(=O)[C@H](CC(C)C)NC(=O)c1cccc(OCCN2CCOCC2)c1 turned out to be 5

The value of inhibition measured for the molecule Cc1nc2ccc(Nc3nccc(-c4c(-c5cccc(NC(=O)c6c(F)cccc6F)c5)nn5ccccc45)n3)cc2nc1C turned out to be 0

The value of inhibition measured for the molecule COc1ccc2ncc(F)c(CCN3CC[C@@H](CNCc4ccc5c(c4C)OCCO5)C3)c2n1 turned out to be 1

The value of inhibition measured for the molecule NC1=NCN(OCc2ccc(Cl)c(Cl)c2)C(N)=N1 turned out to be -3

The value of inhibition measured for the molecule Cc1nc(-c2nc(N3CCC(O)CC3)ncc2-c2ccsc2)sc1C turned out to be -2

====

- RUN_DESCRIPTION: inhibition of 3D7 malaria parasite growth – strain 3D7 (AID 2306);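 also: 0% = DMSO wells and 100% = chloroquine plus artemisinin control wells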
- REPORTED_CONDITIONS: P. falciparum 3D7 erythrocytic growth, LDH absorbance, 72 h; at 2 µM; active compounds read high
List of growth inhibition values.
Lab book: enter the figure in %, no units written.

COMPOUND	growth inhibition / %
Cc1cc(C2CCN(CCCCNC(=O)c3ccc(-c4ccc(C#N)cc4)cc3)CC2)c(C)cc1OCCO	96
Cc1cccc2[nH]c(-c3cccc(-c4ccc(NC(=O)Nc5ccc(Cl)cc5)cc4)c3)nc12	100
CSc1nc2nc(C)c(Cc3cccc(C(F)(F)F)c3)c(C)n2n1	98
CCN(CC)CCNC(=O)/C(=C/C=C/c1cc2cc(Cl)c(Cl)cc2[nH]1)OC	88
CCCN1CCN(CCCNC(=O)c2cc3c(Cl)nc4ccc(C)cc4c3s2)CC1	97
O=C(C=Cc1ccc(Cl)c(Cl)c1)NCCCCCN1CCC(CCCNC(=O)/C=C/c2ccccc2)CC1	96
O=C(CCc1cnc[nH]1)Nc1cccc(-c2ccc(-c3nc4ccccc4[nH]3)cc2)c1	100
CN1CCCC(OC(=O)c2ccccc2)C1 (stereo not given)	100
CCNc1cc(C(=O)N[C@@H](Cc2ccccc2)[C@H](O)CNC2CCC(C)(C)CC2)cc(N2CCCCS2(=O)=O)c1	98

Note: attention shifts to another entry.
The value of growth inhibition measured for the compound Cc1cc(N[C@@H](CC(C)C)C(=O)NCCCOC(C)C)nc(NCCc2ccc(F)cc2)n1 turned out to be 87

====

- RUN_DESCRIPTION: antimalarial activity against Dd2 strain (AID 2302);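 also: 0% = DMSO untreated growth and 100% = chloroquine plus artemisinin killed control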
- REPORTED_CONDITIONS: P. falciparum Dd2 in RBCs, LDH growth readout, 72 h; at 2 µM; active compounds read high
ATTRIBUTE_MEASURED: growth inhibition (%)
Lab book: enter the figure in %, no units written.

COMPOUND	growth inhibition (%)
O=C(N[C@@H](CC1CCCCC1)C(=O)NC1CC1)c1ccc(O)c(-c2cccc(C(F)(F)F)c2)c1	47
N#CC1(CCCNCCc2ccc(O)cc2)CCCc2c(O)cccc21 (stereo not given)	3
COc1cc2c(cc1C=CC(=O)N1CCN(Cc3nc4sc(C)c(C)c4c(=O)[nH]3)CC1)OC(C)C2 (stereo not given)	87
NC(N)=NC(=O)Nc1cc(Br)c(Br)c(Br)c1	89
O=C(Nc1ccc(S(=O)(=O)N2CCCCC2)cc1)c1cc(-c2ccccc2O)n[nH]1	81

The value of growth inhibition measured for the compound O=C(Nc1cccc(Cl)c1)N[C@H]1CCN(Cc2ccc(OCCCN3CCCCC3)cc2)C1 turned out to be -3
